Every entry's value here was drawn from patent US20160311791A1.

Readings of IC50 for the listed molecules
- assayed-system: human CaSR (Homo sapiens)
- Sequence (P41180 20-1078): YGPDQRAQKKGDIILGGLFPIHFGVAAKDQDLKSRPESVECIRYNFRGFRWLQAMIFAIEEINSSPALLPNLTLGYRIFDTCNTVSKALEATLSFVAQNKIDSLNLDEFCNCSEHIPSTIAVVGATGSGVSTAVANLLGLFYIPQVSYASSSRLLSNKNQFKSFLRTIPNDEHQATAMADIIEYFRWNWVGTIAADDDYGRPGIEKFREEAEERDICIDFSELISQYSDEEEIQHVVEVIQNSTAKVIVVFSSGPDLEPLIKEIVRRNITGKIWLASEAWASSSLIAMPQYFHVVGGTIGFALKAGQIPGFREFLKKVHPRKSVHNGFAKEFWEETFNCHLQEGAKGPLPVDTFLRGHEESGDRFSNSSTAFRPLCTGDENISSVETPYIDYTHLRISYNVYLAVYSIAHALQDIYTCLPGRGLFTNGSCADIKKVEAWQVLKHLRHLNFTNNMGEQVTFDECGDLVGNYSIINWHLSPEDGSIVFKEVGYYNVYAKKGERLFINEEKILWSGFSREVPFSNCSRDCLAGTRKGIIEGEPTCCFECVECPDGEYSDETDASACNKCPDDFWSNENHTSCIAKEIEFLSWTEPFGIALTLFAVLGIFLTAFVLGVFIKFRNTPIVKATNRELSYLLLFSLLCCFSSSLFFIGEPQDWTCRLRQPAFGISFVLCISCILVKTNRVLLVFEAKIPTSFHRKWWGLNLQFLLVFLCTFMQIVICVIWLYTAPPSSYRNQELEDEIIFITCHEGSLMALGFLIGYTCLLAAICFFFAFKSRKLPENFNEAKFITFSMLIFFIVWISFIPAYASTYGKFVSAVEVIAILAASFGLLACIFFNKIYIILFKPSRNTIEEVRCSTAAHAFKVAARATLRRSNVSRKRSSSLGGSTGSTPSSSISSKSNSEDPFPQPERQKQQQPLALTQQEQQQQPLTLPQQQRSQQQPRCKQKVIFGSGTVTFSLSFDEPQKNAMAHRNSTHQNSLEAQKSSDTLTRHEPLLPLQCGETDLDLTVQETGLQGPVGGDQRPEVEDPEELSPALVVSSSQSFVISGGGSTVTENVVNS
- procedure-summary: CaSR binding assay (radioligand, HEK293 membranes)
- Set-up: expressed in transfected cells; host or cells: HEK293 cell membranes
- reported-conditions: read-out: IC50s (high affinity for the human calcium sensing receptor and potent antagonist activity)
- Protocol: Procedures for CaSR Binding Assay Membrane preparations from HEK293 cells expressing the human CaSR were generated. The cells were cultured and then washed twice with 1×PBS. The cells were dissociated by adding 4 ml pre-warmed 0.25% Trypsin-EDTA, and by incubating the flask at RT for 3 minutes. 10 ml media was dispensed over the cell layer surface, and the cells were harvested into a centrifuge tube. […] Bound radioactivity was counted in a TOPCOUNT scintillation counter. […]
measurement-name: IC50

>>> print(df.to_string())
                                   molecule  measurement_name  endpoint_result
0  C[C@@H](OC[C@H](O)CNC(C)(C)Cc1ccc2ccccc2c1)c1cccc2c1[C@@H]1[C@H](O2)[C@H]1C(=O)O              IC50             7 nM
1  CSc1ccc(CC(C)(C)NC[C@@H](O)CO[C@H](C)c2ccc(C)c3c2C2[C@H](O3)[C@H]2C(=O)O)cc1F (stereo partly drawn)              IC50            29 nM
2  C[C@@H](OC[C@H](O)CNC(C)(C)Cc1ccc2ccccc2c1)c1cccc2c1O[C@@H]1[C@@H](C(=O)O)[C@H]21              IC50            18 nM
